Test: Microsomal stability
Format: in vitro ADME, mouse
Details: pH 7.4; mouse microsomes; read-out: CLint (mouse)
Quantity Name: microsomal CLint at 1 µM (µL/min/mg)
Numbers only, in µL/min/mg.

Inquiry: Output measured microsomal CLint at 1 µM for this item: Cc1c[nH]c2ncnc(NCC3(O)CCCCC3)c12 [AVI-3761]
Reply text: 185

###

Test: Kinetic solubility
Conditions: pH 7.4, aqueous buffer, kinetic from dmso stock
Quantity Name: solubility kinetic at […] (µM)
Numbers only, in µM.

Inquiry: Quick one: give measured solubility kinetic at […] for O=C(Nc1ccc(C(=O)N[C@H]2c3cccc(O)c3C[C@H]2C(=O)O)cc1)NC1CC1 [AVI-92, reference compound]
Reply text: 524
